biological target: Cytochrome P450 2C9 (Homo sapiens, UniProt P11712); test: Inhibition of CYP2C9 in human liver microsomes using diclofenac as substrate preincubated for 20 mins followed by substrate addition measured after 30 mins in presence of NADPH by LC-MS/MS analysis; assay type: ADME
Sequence (P11712 whole entry): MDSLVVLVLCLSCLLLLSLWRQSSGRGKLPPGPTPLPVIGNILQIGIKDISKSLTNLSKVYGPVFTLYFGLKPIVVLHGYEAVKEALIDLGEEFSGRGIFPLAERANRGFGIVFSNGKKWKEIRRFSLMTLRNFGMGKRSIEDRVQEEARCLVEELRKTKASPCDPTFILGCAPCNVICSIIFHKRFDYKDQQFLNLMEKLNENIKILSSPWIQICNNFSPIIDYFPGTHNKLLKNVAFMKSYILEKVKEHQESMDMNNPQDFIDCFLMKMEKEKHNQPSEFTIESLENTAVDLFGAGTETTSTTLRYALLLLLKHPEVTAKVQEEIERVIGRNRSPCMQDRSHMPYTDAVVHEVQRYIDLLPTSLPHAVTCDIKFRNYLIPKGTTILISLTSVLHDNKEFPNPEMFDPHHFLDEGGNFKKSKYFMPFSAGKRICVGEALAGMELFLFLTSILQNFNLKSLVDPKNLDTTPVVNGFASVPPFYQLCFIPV
readout-label: pIC50
// pIC50 is dimensionless: -log10 of concentration (M)

Query: Give the measured pIC50 of CCCCCCCC(=O)CCc1ccc(O)c(OC)c1 .
Reply: 5.00

* * *

molecular target: Cytochrome P450 3A4 (Homo sapiens, UniProt P08684); test: Inhibition of CYP3A4 in human liver microsomes assessed as enzyme-mediated metabolite formation using testosterone as substrate incubated for 5 mins followed by NADPH addition measured after 30 mins by LC-MS/MS analysis; format: ADME
Sequence (P08684 whole entry): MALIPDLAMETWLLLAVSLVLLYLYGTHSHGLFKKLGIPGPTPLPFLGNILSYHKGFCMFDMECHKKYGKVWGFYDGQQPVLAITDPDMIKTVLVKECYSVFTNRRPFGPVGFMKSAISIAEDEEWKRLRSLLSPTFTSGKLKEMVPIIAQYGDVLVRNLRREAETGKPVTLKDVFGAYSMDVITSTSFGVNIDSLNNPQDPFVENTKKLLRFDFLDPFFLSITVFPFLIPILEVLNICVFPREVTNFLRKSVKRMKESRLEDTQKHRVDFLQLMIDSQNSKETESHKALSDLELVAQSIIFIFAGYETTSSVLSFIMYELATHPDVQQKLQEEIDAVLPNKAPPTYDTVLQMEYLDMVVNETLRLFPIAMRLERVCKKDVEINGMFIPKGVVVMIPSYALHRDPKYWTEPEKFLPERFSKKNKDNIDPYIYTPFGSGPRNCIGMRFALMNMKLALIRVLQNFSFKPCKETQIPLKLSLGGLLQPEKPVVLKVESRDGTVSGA
readout-label: IC50
Kindly format the answer as number then unit.

Query: Give the measured IC50 of CCCCCCCC(=O)CCc1ccc(O)c(OC)c1 .
Reply: 30 µM
